Data origin: the supplement of paper PMC6607015

Each entry below lists one item and its recorded whole-cell filipin (z-score) value.
Tested on: A431
assay_remarks: whole-cell filipin (free cholesterol) integrated intensity, Z-score; higher = more cholesterol staining
condition_summary: compound concentration in added solution (µM; 5 µl added to 20 µl cells): 10; 18 h
Where a name gives a salt, the structure may show the parent alone.

- molecule: "Cc1cc(C(C#N)c2ccc(Cl)cc2)c(Cl)cc1NC(=O)c1cc(I)cc(I)c1O (stereo not drawn) [Closantel]"
  whole-cell filipin (z-score): -0.93
- molecule: "O=C(CCCN1CCC2(CC1)C(=O)NCN2c1ccccc1)c1ccc(F)cc1 [Spiperone]"
  whole-cell filipin (z-score): 1.66
- molecule: "C[C@]12C[C@H]3S[C@H]3C[C@@H]1CC[C@@H]1[C@@H]2CC[C@]2(C)[C@@H](O)CC[C@@H]12 [Epitiostanol]"
  whole-cell filipin (z-score): 0.372
- molecule: "CN[C@@H]1[C@@H](O)[C@@H](O[C@@H]2[C@@H](O)[C@H](O[C@H]3O[C@H](CN)CC[C@H]3N)[C@@H](N)C[C@H]2N)OC[C@]1(C)O.CN[C@@H]1[C@@H](O)[C@@H](O[C@@H]2[C@@H](O)[C@H](O[C@H]3O[C@H]([C@@H](C)N)CC[C@H]3N)[C@@H](N)C[C@H]2N)OC[C@]1(C)O.CN[C@@H]1[C@@H](O)[C@@H](O[C@@H]2[C@@H](O)[C@H](O[C@H]3O[C@H]([C@@H](C)NC)CC[C@H]3N)[C@@H](N)C[C@H]2N)OC[C@]1(C)O [Gentamicine sulfate]"
  whole-cell filipin (z-score): -1.14
- molecule: "CCN(CC)C(C)C(=O)c1ccccc1 (stereo not drawn) [Amfepramone hydrochloride]"
  whole-cell filipin (z-score): -0.82
- molecule: "C[C@]12CC[C@H]3[C@@H](CCC4=CC(=O)CC[C@@H]43)[C@@H]1CC[C@@H]2O [Nandrolone]"
  whole-cell filipin (z-score): -0.14
- molecule: "O=C([O-])c1ccccc1-c1c2cc(Br)c(=O)cc-2oc2[c]([Hg+])c([O-])c(Br)cc12.[Na+].[Na+].[OH-] [Merbromin]"
  whole-cell filipin (z-score): -0.246
- molecule: "CCC1(CC)C(=O)C=CNC1=O [Pyrithyldione]"
  whole-cell filipin (z-score): -0.51
- molecule: "Oc1ccc2c3c1O[C@H]1[C@@H](O)CC[C@@]4(O)[C@@H](C2)N(CC2CCC2)CC[C@]314 [Nalbuphine hydrochloride]"
  whole-cell filipin (z-score): -0.797
- molecule: "CN1[C@@H]2CC[C@H]1C[C@@H](OC(=O)[C@H](CO)c1ccccc1)C2 [Hyoscyamine (L)]"
  whole-cell filipin (z-score): -0.954
- molecule: "CCN[C@@H](C)Cc1cccc(C(F)(F)F)c1 [Dexfenfluramine hydrochloride]"
  whole-cell filipin (z-score): -0.95
- molecule: "CC(C)C[C@H]1C(=O)N2CCC[C@H]2[C@]2(O)O[C@](NC(=O)[C@@H]3C=C4c5cccc6[nH]c(Br)c(c56)C[C@H]4N(C)C3)(C(C)C)C(=O)N12 [Bromocryptine mesylate]"
  whole-cell filipin (z-score): 1.54
- molecule: "CC(C)[N+](C)(CCC(C(N)=O)(c1ccccc1)c1ccccc1)C(C)C [Isopropamide iodide]"
  whole-cell filipin (z-score): 0.00888
